- System: OVCAR-5 ovarian
- protocol_summary: NCI tumour cell line growth inhibition, 48 h
Measured TGI values are reported for all entries that follow.

As a guide, the following entries are already answered.
compound | TGI
COC(=O)CCC(=O)N1CC1C (configuration not stated) | > 100 µM
O=C1Nc2ccccc2/C1=C/c1cn(CC(O)Cn2cc(/C=C3\C(=O)Nc4ccccc43)c3ccccc32)c2ccccc12 (configuration not stated) | 4.53 µM
CC(=O)O[C@H]1C(=O)[C@@]2(C)[C@H]([C@H](OC(=O)c3ccccc3)[C@]3(O)C[C@H](OC(=O)[C@H](O)[C@@H](NC(=O)c4ccc(N(C)C)cc4)c4ccccc4)C(C)=C1C3(C)C)[C@]1(OC(C)=O)CO[C@@H]1C[C@@H]2O | > 50 µM

Entry CC[n+]1c(/C=C/c2ccc(N(CCCl)CCCl)cc2)ccc2cc(I)ccc21 ; TGI = 7.77 µM

Entry O=C1NC(=Nc2ccccc2Cl)N/C1=C\c1ccc(Cl)cc1Cl ; TGI = > 100 µM

Entry CC(C)C(=S)N(C)O ; TGI = > 100 µM

Entry COC(=O)CC(C(C(C)=O)C(=O)OCc1ccccc1)N1C(=O)OC(c2ccccc2)C1c1ccccc1 (configuration not stated) ; TGI = > 100 µM

Entry Cc1cc(NS(=O)(=O)c2ccc(Nc3c4ccccc4nc4c(C(=O)NCCO)cccc34)cc2)no1 ; TGI = > 100 µM

Entry CCN(CC)c1ccc(N=Nc2ccc(-c3nc4cccn(C)c-4n3)cc2)cc1 ; TGI = 26.3 µM

Entry COc1ccc2c(c1)O/C(=C\c1cccc(OCC(=O)Nc3nc(C)c(C)s3)c1)C2=O ; TGI = > 26.3 µM

Entry CCOC1CCN(C(=O)c2ccccc2)O1 (configuration not stated) ; TGI = > 10 µM

Entry O=C([CH-]C(=O)c1ccccc1)c1ccccc1.O=C([CH-]C(=O)c1ccccc1)c1ccccc1.O=C([CH-]C(=O)c1ccccc1)c1ccccc1.[Cl-].[Zr+4] ; TGI = > 100 µM

Entry CC1=C(C#N)C(/C=C(\Cl)c2ccc(F)cc2)C(C#N)=C(C)N1 ; TGI = > 100 µM

Entry CCOc1cc(-c2nc3cc(F)ccc3s2)ccc1O ; TGI = 33.3 µM

Entry N#Cc1c(-c2ccc([N+](=O)[O-])cc2)cc(-c2ccc(Nc3ccnc4cc(Cl)ccc34)cc2)nc1N ; TGI = 45.6 µM

Entry CCC[CH2][Sn]([CH2]CCC)([CH2]CCC)[O]C(=O)C(OC)c1ccccc1 (configuration not stated) ; TGI = 0.183 µM

Entry CC1(C)OC2OC(COC(=O)c3ccc(C#N)cc3)C3OC(C)(C)OC3C2O1 (configuration not stated) ; TGI = > 75 µM

Entry C/C(O)=C(\N=O)C(=O)NCc1ccccc1 ; TGI = > 100 µM

Entry CC(=O)NC1(C)C(C)C2CC1C(C)C2(C)C (configuration not stated) ; TGI = > 100 µM

Entry CN(C)N=Nc1ccc2[nH]c(=O)[nH]c2c1 ; TGI = > 100 µM

Entry O=C(NC1(C(=O)O)CCCC1)c1ccccc1 ; TGI = > 100 µM

Entry CC(CC[C@@]1(O)OC2C[C@H]3[C@@H]4CC[C@H]5CC(OC6OC(CO)C(OC7OC(CO)C(O)C(OC8OCC(O)C(O)C8O)C7OC7OC(CO)C(O)C(O)C7O)C(O)C6O)[C@H](O)CC5(C)[C@H]4CCC3(C)C2[C@@H]1C)COC1OC(CO)C(O)C(O)C1O (some centres not stated) ; TGI = 27.8 µM

Entry COC[C@H]1C(=O)NCC(=O)N2N=CCC[C@H]2C(=O)N(O)[C@H](C)C(=O)O[C@@H](C(C)C)[C@H](NC(=O)[C@@](C)(O)[C@]2(O)CC[C@@H](CC(C)C)[C@H](C)O2)C(=O)N2NCCC[C@@H]2C(=O)N1O ; TGI = 0.0341 µM

Entry COc1ccccc1C1C(C#N)=C(N)Oc2cc(O)ccc21 (configuration not stated) ; TGI = > 100 µM

Entry COc1cc(OC)c(C2(c3c(OC(C)C)c(=O)c3=O)SCCCS2)cc1OC ; TGI = > 100 µM

* * *

- System: MDA-MB-231 breast
- protocol_summary: NCI tumour cell line growth inhibition, 48 h; in the data active = GI50 below about 0.43 µM; inactive = the rest
Choose one outcome from this list and give only that: active, inactive

Worked cases, answers included:
compound | group
COc1cc(-c2cc3ncccc3c3[nH]c(=O)c4cccnc4c23)cc(OC)c1OC | inactive
CCc1nc2cc(/C=C/C(=O)NO)ccc2c(=O)n1CCc1ccc(OC)cc1 | inactive
CC(=O)O[C@H](C[C@H](C(C)C)N(C)C(=O)[C@@H](NC(=O)[C@H]1CCCCN1C)C(C)C)c1cccc(C(=O)N[C@@H](Cc2ccccc2)C[C@H](C)C(=O)O)n1 | active

Kindly consider the entry below.
Prompt: Query: recorded result category for Cc1ccc(O)c(NC2=C(Cl)C(=O)N(Cc3ccccc3)C2=O)c1 in this test
Response: inactive

* * *

- Test system: KM12 colon
- protocol_summary: NCI tumour cell line growth inhibition, 48 h; in the data active means GI50 below about 0.43 µM; inactive means the rest
Choose one outcome from this list and give only that: active, inactive

compound | group
CC1=C(C#N)C(/C=C(\Cl)c2ccc(F)cc2)C(C#N)=C(C)N1 | inactive

Prompt: Query: recorded result category for CC(C)(C)c1nc(-c2cccc(NS(=O)(=O)c3c(F)cccc3F)c2F)c(-c2ccnc(N)n2)s1 in this test
Response: inactive

Prompt: Query: recorded result category for CC(=O)O[C@H](C[C@H](C(C)C)N(C)C(=O)[C@@H](NC(=O)[C@H]1CCCCN1C)C(C)C)c1cccc(C(=O)N[C@@H](Cc2ccccc2)C[C@H](C)C(=O)O)n1 in this test
Response: active

Prompt: Query: recorded result category for O=C(O)Cn1ccc2ccccc21 in this test
Response: inactive

Prompt: Query: recorded result category for CCc1nc2cc(/C=C/C(=O)NO)ccc2c(=O)n1CCc1ccc(OC)cc1 in this test
Response: inactive

Prompt: Query: recorded result category for O=C(Oc1ccccc1)C(Br)C(Br)c1ccccc1 (centres undefined) in this test
Response: inactive

Prompt: Query: recorded result category for Oc1c(O)c(Cl)c(Cl)c(Cl)c1Cl in this test
Response: inactive

Prompt: Query: recorded result category for C[C@H](NC(=O)c1c(C(F)F)nn(C)c1Oc1cccc(C(F)(F)F)c1)c1ccc(C(=O)O)cc1 in this test
Response: inactive

Prompt: Query: recorded result category for Cn1cc(C2=C(c3ccccc3C(F)(F)F)C(=O)NC2=O)c2ccccc21 in this test
Response: inactive

* * *

- Test system: T-47D breast
- protocol_summary: NCI tumour cell line growth inhibition, 48 h
value_type: TGI (µM)
Answer with a number only, understood to be in µM.

molecule | tgt | TGI / µM
NCCOc1ncccc1/C=C1\c2ccccc2-c2ccc([N+](=O)[O-])cc21 | T-47D breast | 0.305
CCN(CC)c1ccc2nc3ccc(N=Nc4ccc(O)cc4)cc3[n+](-c3ccccc3)c2c1 | T-47D breast | 84.1
O=C1NC(=Nc2ccccc2)C(=Nc2ccccc2)N1c1ccccc1 | T-47D breast | 33.2
Cc1cn2c(/C=N/N=C(N)N)c(-c3ccncc3)nc2s1 | T-47D breast | 31.6

Next up:
Entry COC(=O)CNC(=O)CCC(C)[C@H]1CCC2C3C(C[C@H](OC(C)=O)[C@@]21C)[C@@]1(C)CCC2(C[C@H]1C[C@H]3OC(C)=O)OOC1(CCCCC1)OO2 (stereo partly specified) ; TGI = 5.03

* * *

- System: SF-268 CNS
- protocol_summary: NCI tumour cell line growth inhibition, 48 h
Measured GI50 values are reported for all entries that follow.

molecule | value_type | val
CCc1nc2cc(/C=C/C(=O)NO)ccc2c(=O)n1CCc1ccc(OC)cc1 | GI50 | 2.44 µM
CC(C)(C)c1nc(-c2cccc(NS(=O)(=O)c3c(F)cccc3F)c2F)c(-c2ccnc(N)n2)s1 | GI50 | 51 µM

// GI50 (SF-268 CNS) for CCc1nn2ncccc2c1-c1ccnc(NC2CC2)n1 = > 25 µM

// GI50 (SF-268 CNS) for Cc1c(C)c2c(c(C)c1OCC(=O)O)CC[C@@](C)(CCC[C@@H](C)CCC[C@@H](C)CCCC(C)C)O2 = 87.8 µM

* * *

- Tested on: SNB-75 CNS
- protocol_summary: NCI tumour cell line growth inhibition, 48 h
Measured TGI values are reported for all entries that follow.
Answer with a number only, understood to be in µM.

As a guide, the following entries are already answered.
compound | TGI, µM
COC(=O)[C@H](Cc1c[nH]c2ccccc12)NC(=O)c1ccccc1I | 32.4
COc1ccc2[nH]c(C(=O)OCc3ccc4cccc(O)c4n3)cc2c1 | 2.3

Entry CCC[CH2][Sn]([CH2]CCC)([CH2]CCC)[O]C(=O)C(OC)c1ccccc1 (configuration not stated) ; TGI = 0.513
